System: MDA-MB-231 breast
Measurement Protocol: NCI-60 one-dose screen, 48 h (100 = growth as untreated, 0 = no growth, -100 = all killed)
Cond: 10 µM unless noted
The panel holds about 83,000 compounds, 20% with a hit somewhere; the sample as a whole holds those more often.
For each entry below, report its growth value.
Answers are plain numbers, in %.

Provide growth for all items below, preserving their order.
1. COC(=O)[C@]1(C)CCC[C@]2(C)[C@H]3C[C@H]4C(C(C)C)=C[C@]3(CC[C@H]21)[C@H]1[C@@H]4[C@@H](OCCC#N)CC[C@@H]1OCCC#N
2. COc1ccc(C(=O)Nc2cccc(C3CC(=O)c4c(cc(OC)c(OC)c4OC)O3)c2)cc1 (centres undefined)
3. O=C(CSc1nnc2n1S(=O)(=O)c1ccccc1N2c1ccccc1)Nc1nc2ccc(F)cc2s1
4. CN1CCN(C(=O)c2ccc(NC(=O)Nc3ccc(-c4nc(N5CCOCC5)c5cccn5n4)cc3)cc2)CC1

Given back:
1. 47.3
2. 41.9
3. 98.9
4. 2.25

Consider the following items and state reported growth for each.
1. CNc1nc(S(=O)c2ccc(C#N)cc2)nc2ccccc12 (centres undefined)
2. NC(=O)c1c(NC(=O)c2ccccc2)sc2c1CCC(=O)C2
3. Cc1nc2sc(C(=O)Nc3cccc(Cl)c3C)c(N)c2cc1C(=O)c1ccccc1
4. Cc1cc(Cl)ccc1Nc1nc(C(F)(F)F)ccc1C(=O)N/N=C/c1ccc([N+](=O)[O-])cc1
5. O=C(CN1C(=O)CCC1=O)Nc1ncc(Cc2ccc(F)cc2)s1

Given back:
54.8
0.799
39
-51.5
97.4

----------
For each entry below, report its growth value.
Tested on: NCI-H460 lung
Measurement Protocol: NCI-60 one-dose screen, 48 h (100 = growth as untreated, 0 = no growth, -100 = all killed)
Cond: 10 µM unless noted
This is part of a sample that, as a whole, favours compounds with a hit. Of some 83,000 tested, about 20% had one in any assay. Calls of active or inactive are those of the source. The calls were made as follows: active = growth percent below 10; inactive = the rest.

> print(dat)
                            chemical.smiles  measure.name  recorded.measurement
1  COc1ccc(OC)c(-c2c(C#N)c(-c3cccs3)nc3c2c(-c2ccccc2)nn3-c2ccccc2)c1        growth       101% (inactive)
2  Oc1c(Cl)cc(Cl)c2ccc(Cn3cc(-c4cc(C(F)(F)F)cc(C(F)(F)F)c4)nn3)nc12        growth       101% (inactive)
3  C#CCOc1cccc(Nc2ncnc3ccc(NC(=O)CCl)cc23)c1        growth       -19.9% (active)
4  O=C(Nc1ncc(Cc2ccc(Cl)c(C(F)(F)F)c2)s1)c1ccc2nnsc2c1        growth      27.2% (inactive)

Proceed to the following item.
Asked: Field request: growth | item: O=c1oc2ccc([N+](=O)[O-])cc2cc1Br
Given back: 107% (inactive)

----------
Tested on: HS 578T breast
Measurement Protocol: NCI-60 one-dose screen, 48 h (100 = growth as untreated, 0 = no growth, -100 = all killed)
Cond: 10 µM unless noted
Compounds without any hit were thinned out: in the full panel of roughly 83,000, 20% have a hit. Activity calls are given as the source filed them. How the source made its calls: active means growth percent below 10; inactive means the rest.
Measure Name: growth

> print(dat)
                                   compound  measure.name  recorded.measurement
1  OCCNCCCOc1ccc2ncnc(Nc3ccc(Oc4cccc(C(F)(F)F)c4)c(Cl)c3)c2c1        growth      34.2% (inactive)

Kindly give each listed record's growth.
1. CC(=O)OC[C@]12CCC(C)(C)C[C@H]1[C@@]1(O)[C@H](O)C[C@@H]3[C@@]4(C)CCCNC(C)(C)[C@@H]4CC[C@@]3(C)[C@]1(C)CC2
2. Cc1ccc(-c2csc(NC(=O)CN3CCN(c4cc5c(cc4F)c(=O)c(C(=O)O)cn5C4CC4)CC3)n2)cc1
3. Cc1ccc2c3c(c(=O)[nH]c2c1)C1(C(C#N)=C(N)O3)c2cc(Br)ccc2-c2ccc(Br)cc21

Given back:
110% (inactive)
47.8% (inactive)
-5.5% (active)

Give growth for all compounds that follow.
1. COc1ccc(/C=N/C2=C(C#N)C(c3cccc(Cl)c3)c3c(ccc4ccccc34)O2)cc1 (stereo not drawn)
2. N#CC1C=CN(CC(N)=O)c2ccc3cccnc3c21 (stereo not drawn)
3. O=C(c1ccccc1)C1C(=O)N2C(=S)N(c3ccccc3)C(=O)C2C1c1ccc(Cl)cc1 (stereo not drawn)

Given back:
1. 15.9% (inactive)
2. 96.2% (inactive)
3. 88.9% (inactive)

Asked: Item under review: COCCn1cc(-c2nc(-c3cc4cccnc4n3CCOC)cs2)c2cc(OC)ccc21 . Reported growth?
Given back: 58% (inactive)
